Tested on: Mus musculus
Measurement description: Analgesic activity in Wister albino mice at 10 mg/kg, po after 30 mins by tail-flick test
Activity values, listed per item

Compound	Experimental system	Activity [%]
O=C([O-])Cc1ccccc1Nc1c(Cl)cccc1Cl.[Na+] [DICLOFENAC SODIUM]	Mus musculus	37
CN1CCN(c2ccc(-c3c(C#N)c(N)nc4[nH]c(=S)[nH]c(=O)c34)cc2)CC1	Mus musculus	53
N=c1sc(=S)[nH]c2nc3[nH]c(=S)[nH]c(=O)c3c(-c3ccc(N4CCOCC4)cc3)c12	Mus musculus	39
CN1CCN(c2ccc(-c3c4c(=O)[nH]c(=S)[nH]c4nc4[nH]c(=S)sc(=N)c34)cc2)CC1	Mus musculus	32
Nc1ncnc2nc3[nH]c(=S)[nH]c(=O)c3c(-c3ccc(N4CCCCC4)cc3)c12	Mus musculus	41
O=c1[nH]cnc2nc3[nH]c(=S)[nH]c(=O)c3c(-c3ccc(N4CCCCC4)cc3)c12	Mus musculus	32
N#Cc1c(N)nc2[nH]c(=S)[nH]c(=O)c2c1-c1ccc(N2CCCCC2)cc1	Mus musculus	46
O=c1[nH]cnc2nc3[nH]c(=S)[nH]c(=O)c3c(-c3ccc(N4CCOCC4)cc3)c12	Mus musculus	30
N#Cc1c(N)nc2[nH]c(=S)[nH]c(=O)c2c1-c1ccc(N2CCOCC2)cc1	Mus musculus	45
Nc1nc(=O)[nH]c2nc3[nH]c(=S)[nH]c(=O)c3c(-c3ccc(N4CCCCC4)cc3)c12	Mus musculus	39
Cc1nc2nc3[nH]c(=S)[nH]c(=O)c3c(-c3ccc(N4CCCCC4)cc3)c2c(=O)[nH]1	Mus musculus	37
Nc1nc(=S)[nH]c2nc3[nH]c(=S)[nH]c(=O)c3c(-c3ccc(N4CCOCC4)cc3)c12	Mus musculus	42
Nc1ncnc2nc3[nH]c(=S)[nH]c(=O)c3c(-c3ccc(N4CCOCC4)cc3)c12	Mus musculus	38
N=c1sc(=S)[nH]c2nc3[nH]c(=S)[nH]c(=O)c3c(-c3ccc(N4CCCCC4)cc3)c12	Mus musculus	38
CN1CCN(c2ccc(-c3c4c(N)ncnc4nc4[nH]c(=S)[nH]c(=O)c34)cc2)CC1	Mus musculus	39
